Each entry below lists one item and its recorded abundance fitness value.
B1: Far upstream element-binding protein 1, residues 98 to 169; numbered along this chain, Q96AE4 (parent)
chain: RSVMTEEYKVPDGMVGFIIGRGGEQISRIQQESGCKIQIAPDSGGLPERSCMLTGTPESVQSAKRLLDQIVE

Variants of: B1
Assay: abundance fitness (aPCA) (normalised: wild type 0, dead -1); higher = more abundant; growth selection in yeast, the domain comes from the species named
Conditions: Homo sapiens
Lab note: jot the number down without any unit.

- S27C: -0.042
- Q61E: 0.052
- I26W: -0.158
- E72P: -0.065

Query S27P yields abundance fitness of -0.198

Summary for this variant, L66R : abundance fitness is -0.053

# variant S62T ; its abundance fitness = -0.005

R1H has a reported abundance fitness of -0.219

Reported abundance fitness for V3C was -0.048

Lab book: abundance fitness of P41A noted as -0.044

Field abundance fitness (entry K36N ) reads -0.059

Recorded result, C35Q , abundance fitness: -0.936

Record summary for P41C : reported abundance fitness = -0.025

The measured abundance fitness associated with P57L reads -0.048

abundance fitness for V10N is -0.48

Form field abundance fitness, entry Q69C : -0.079

Notebook: Q61D , abundance fitness read as 0.003

For I39E the variant record lists abundance fitness as -0.36

Per the record, L66N has abundance fitness of -0.108

# abundance fitness of C51R = -0.984

For reference, reported abundance fitness for L46T stands at -0.006

Record E6N . Reported abundance fitness: -0.177

E72M has a reported abundance fitness of -0.01

L46M has a reported abundance fitness of -0.031

The variant A63I showed abundance fitness equal to -0.328
